- Test system: recombinant human MAO-B (hMAO-B) (Homo sapiens, UniProt P27338)
- Construct: purchased Sigma-Aldrich; host or cells: baculovirus infected insect cells
- Sequence (P27338 1-520): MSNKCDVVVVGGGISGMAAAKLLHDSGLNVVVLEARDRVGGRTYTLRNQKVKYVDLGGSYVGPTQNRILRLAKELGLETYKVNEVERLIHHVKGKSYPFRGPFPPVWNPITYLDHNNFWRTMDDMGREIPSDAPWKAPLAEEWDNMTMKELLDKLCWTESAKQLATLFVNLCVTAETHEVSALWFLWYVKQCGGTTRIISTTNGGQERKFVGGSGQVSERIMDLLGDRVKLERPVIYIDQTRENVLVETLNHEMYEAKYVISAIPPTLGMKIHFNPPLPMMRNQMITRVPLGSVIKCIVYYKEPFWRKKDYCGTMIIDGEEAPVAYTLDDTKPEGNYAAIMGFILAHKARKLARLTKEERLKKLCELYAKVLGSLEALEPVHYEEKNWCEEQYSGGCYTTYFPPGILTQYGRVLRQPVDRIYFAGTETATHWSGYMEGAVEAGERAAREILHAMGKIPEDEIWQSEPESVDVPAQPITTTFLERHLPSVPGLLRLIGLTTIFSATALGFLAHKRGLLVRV
- Measurement notes: hMAO-B continuous spectrophotometric assay (enzymatic H2O2 production)
- Type: biochemical
- Run conditions: spectrophotometric assay; 3 mM benzylamine; 40 min preincubation at RT; ± SEM
List of IC50 values.
Number only, in µM; omit the unit.

Some compounds with recorded IC50:
• CC(C)=CCc1cc(-c2coc3cc(O)ccc3c2=O)ccc1O = 77.3
• O=c1ccc2ccc3occc3c2o1 = 51
• CC(C)=CCc1c(O)cc2c(c1O)C(=O)C[C@@H](c1ccc(O)cc1)O2 = 17.9

Turning to the following compound.
Request: // lookup IC50 for O=c1ccc2cc3ccoc3cc2o1
Result: 175

###

- Test system: recombinant human MAO-A (hMAO-A) (Homo sapiens)
- Construct: purchased Sigma-Aldrich; host or cells: baculovirus infected insect cells
- Sequence (P21397 1-527): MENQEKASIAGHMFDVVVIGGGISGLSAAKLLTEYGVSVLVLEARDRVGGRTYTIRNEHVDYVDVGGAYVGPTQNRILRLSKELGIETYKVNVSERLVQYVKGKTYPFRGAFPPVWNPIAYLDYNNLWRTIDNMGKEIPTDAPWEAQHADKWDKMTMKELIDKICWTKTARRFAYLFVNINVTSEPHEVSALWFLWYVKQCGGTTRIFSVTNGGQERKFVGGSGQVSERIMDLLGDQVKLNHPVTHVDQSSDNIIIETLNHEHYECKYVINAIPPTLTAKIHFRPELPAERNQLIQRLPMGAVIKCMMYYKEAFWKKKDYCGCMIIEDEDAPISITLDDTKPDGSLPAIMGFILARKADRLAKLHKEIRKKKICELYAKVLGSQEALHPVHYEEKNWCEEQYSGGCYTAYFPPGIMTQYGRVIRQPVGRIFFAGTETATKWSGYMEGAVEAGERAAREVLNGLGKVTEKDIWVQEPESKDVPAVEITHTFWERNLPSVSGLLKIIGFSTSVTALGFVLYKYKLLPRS
- Measurement notes: hMAO-A continuous spectrophotometric assay (enzymatic H2O2 production)
- Assay type: biochemical
Measured metric: pIC50
Note on pIC50: it is the negative log10 of concentration, concentration in mol/L.

Request: // lookup pIC50 for O=c1ccc2ccc3occc3c2o1 [IPS, isopsoralen]
Result: 4.69

// data source = paper PMC5223566
